- study.system: PRKCG (human) (UniProt P05129)
- method.summary: Caliper, Mobility shift assay off-chip
- condition.parameters: compound 1.0 µM
reported.metric: inhibition (%)

# molecule, reported.metric, unit.info, result.number
rows = [
    ("CN(c1ccc2ccc3ncc(-c4cnn(C)c4)cc3c(=O)c2c1)S(=O)(=O)NCc1ccccn1", "inhibition", "%", -6.9),
]

a = Cn1cc(-c2cnc3ccc4ccc(CS(=O)(=O)CCc5ccccn5)cc4c(=O)c3c2)cn1
b = O=C(CCc1ccc2ccc3ncc(C4CCNCC4)cc3c(=O)c2c1)NCc1ccccn1
Q: Field: entry with larger inhibition (options a / b ). Which one? Tell me its label.
A: a
(a: -3.4%, b: -15%)
